target: KRAS G13C (Homo sapiens, UniProt P01116+P62937, G13C); experiment: Disruption of BRAF RBD interaction with Ras (FRET / MOA assay, with Cyclophilin A); format: biochemical; conditions: read-out: KRAS G13C FRET data, IC50
Sequence (P01116 1-169 isoform P01116-2 G13C): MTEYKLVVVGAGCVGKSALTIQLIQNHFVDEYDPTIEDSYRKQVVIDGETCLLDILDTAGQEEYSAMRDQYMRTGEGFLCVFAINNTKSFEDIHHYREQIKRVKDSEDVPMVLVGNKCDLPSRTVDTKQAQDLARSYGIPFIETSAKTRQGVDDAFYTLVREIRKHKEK
Sequence (P62937 whole entry): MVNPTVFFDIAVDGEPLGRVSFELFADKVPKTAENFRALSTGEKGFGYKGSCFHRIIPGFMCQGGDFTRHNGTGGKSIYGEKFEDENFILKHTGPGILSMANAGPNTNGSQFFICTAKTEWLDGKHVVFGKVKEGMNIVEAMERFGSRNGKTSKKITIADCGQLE
Below is a list of entries, each paired with its recorded IC50 value.

Past entries and their recorded results:
{"columns": ["compound", "IC50"],
 "data": [
  ["CCn1c(-c2cccnc2[C@H](C)OC)c2c3cc(ccc31)-c1cc(O)cc(c1)C[C@H](NC(=O)[C@H](C(C)C)N(C)C(=O)[C@@H]1CCN[C@@H]1c1ccccc1)C(=O)N1CCC[C@H](N1)C(=O)OCC(C)(C)C2 (atropisomer, axis not shown) [Example A605]", "10 to 100 nM"],
  ["CCn1c(-c2cc(N3CCN(C)CC3)cnc2[C@H](C)OC)c2c3cc(ccc31)-c1csc(n1)C[C@H](NC(=O)[C@H](C1CCCC1)N(C)C(=O)N1CCC1)C(=O)N1CCC[C@H](N1)C(=O)OCC(C)(C)C2 (atropisomer, axis not shown) [Example A529]", "10 to 100 nM"],
  ["CCn1c(-c2cccnc2[C@H](C)OC)c2c3cc(ccc31)-c1cccc(c1)C[C@H](NC(=O)[C@H](C(C)C)N(C)C(=O)[C@H]1CCN(CCO)C1)C(=O)N1CCC[C@H](N1)C(=O)OCC(C)(C)C2 [Example A109]", "100 to 1000 nM"],
  ["CCn1c(-c2cccnc2[C@H](C)OC)c2c3cc(ccc31)-c1cc(O)cc(c1)C[C@H](NC(=O)[C@H](C(C)C)N(C)C(=O)C1COC1)C(=O)N1CCC[C@H](N1)C(=O)OCC(C)(C)C2 [Example A18]", "100 to 1000 nM"],
  ["CCn1c(-c2cccnc2[C@H](C)OC)c2c3cc(ccc31)-c1csc(n1)C[C@H](NC(=O)[C@H](C(C)C)N(C)C(=O)N1CCC[C@H]1CN(C)C)C(=O)N1CCC[C@H](N1)C(=O)OCC(C)(C)C2 [Example A519]", "1000 to 10000 nM"]
]}

Prompt line: What measured IC50 goes with CCn1c(-c2cccnc2[C@H](C)OC)c2c3cc(ccc31)-c1csc(n1)C[C@H](NC(=O)[C@H]1CCCO1)C(=O)N1CCC[C@H](N1)C(=O)OCC(C)(C)C2 (atropisomer, axis not shown) [Example A315] ?
Response line: 100 to 1000 nM

Prompt line: What measured IC50 goes with CCn1c(-c2cccnc2[C@H](C)OC)c2c3cc(ccc31)-c1csc(n1)C[C@H](NC(=O)c1ccccn1)C(=O)N1CCC[C@H](N1)C(=O)OCC(C)(C)C2 [Example A366] ?
Response line: 100 to 1000 nM

Prompt line: What measured IC50 goes with CCn1c(-c2cc(N3CCN(C)CC3)cnc2[C@H](C)OC)c2c3cc(ccc31)-c1csc(n1)C[C@H](NC(=O)[C@H](C(C)C)N(C)C(=O)[C@@H]1OCC[C@@H]1c1ccccc1)C(=O)N1CCC[C@H](N1)C(=O)OCC(C)(C)C2 (atropisomer, axis not shown) [Example A583] ?
Response line: 100 to 1000 nM

Ref: patent US20230233569A1
